System: Dipeptidyl peptidase 4 (Homo sapiens) | Read-out: pIC50
Sequence (P27487 whole entry): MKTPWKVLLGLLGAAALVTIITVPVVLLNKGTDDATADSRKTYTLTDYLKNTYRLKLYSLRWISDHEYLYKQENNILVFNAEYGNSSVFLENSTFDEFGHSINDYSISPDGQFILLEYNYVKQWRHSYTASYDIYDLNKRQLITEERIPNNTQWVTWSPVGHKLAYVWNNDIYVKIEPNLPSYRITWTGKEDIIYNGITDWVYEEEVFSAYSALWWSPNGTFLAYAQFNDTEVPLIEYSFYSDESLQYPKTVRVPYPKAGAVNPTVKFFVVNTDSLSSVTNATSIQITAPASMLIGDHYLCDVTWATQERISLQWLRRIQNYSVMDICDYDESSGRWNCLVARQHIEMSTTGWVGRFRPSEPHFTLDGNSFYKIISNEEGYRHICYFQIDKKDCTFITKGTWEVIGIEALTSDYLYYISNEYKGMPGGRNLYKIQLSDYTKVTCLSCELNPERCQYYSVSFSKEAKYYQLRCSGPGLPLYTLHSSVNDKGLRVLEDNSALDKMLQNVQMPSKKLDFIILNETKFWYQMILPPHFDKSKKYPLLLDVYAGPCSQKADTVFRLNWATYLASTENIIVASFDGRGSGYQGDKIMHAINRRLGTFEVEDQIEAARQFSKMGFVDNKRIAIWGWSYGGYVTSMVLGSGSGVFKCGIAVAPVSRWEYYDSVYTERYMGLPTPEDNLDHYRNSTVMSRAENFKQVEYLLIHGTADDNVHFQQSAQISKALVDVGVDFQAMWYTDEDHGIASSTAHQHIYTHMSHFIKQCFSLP
Answers are plain numbers, as −log10 of the molar value.

Example compounds with recorded pIC50:
COc1ccc(OP(=O)(Oc2ccc(OC)cc2)C2CCCN2C(=O)C2CCCN2)cc1.Cl (stereo not drawn)
4.66
Cl.O=C(C1CCCN1)N1CCCC1P(=O)(Oc1ccc(O)cc1)Oc1ccc(O)cc1 (stereo not drawn)
3.72

Reported pIC50 for Cl.O=C([C@@H]1CCCN1)N1CCCC1P1(=O)Oc2ccccc2-c2ccccc2O1 (stereo partly drawn) was 4.51

====

Field: half-life. Provide a value for each of the molecules that follow.
Assay: Functional stability in plasma was estimated by fitting the inverse of apparent IC50 values verses time with a single-exponential decay
Format: ADME, cell-free
Numbers only, in min.

Before answering, review these 3 worked examples.
C[C@H](N)C(=O)Nc1ccc(OP(=O)(Oc2ccc(NC(=O)[C@@H](C)N)cc2)C2CCCN2C(=O)C2CCCN2)cc1.Cl (some centres undefined)
8
COC(=O)CCNC(=O)c1ccc(OP(=O)(Oc2ccc(C(=O)NCCC(=O)OC)cc2)C2CCCN2C(=O)C2CCCN2)cc1.Cl (centres undefined)
26
Cl.O=C([C@H]1CCCN1)N1CCCC1P(=O)(Oc1ccccc1)Oc1ccccc1 (some centres undefined)
300

Kindly review the next molecule as well.
Consider Cl.O=C(CNC(=O)c1ccccc1)Nc1ccc(OP(=O)(Oc2ccc(NC(=O)CNC(=O)c3ccccc3)cc2)C2CCCN2C(=O)C2CCCN2)cc1 (centres undefined) . Its measured half-life is 93

Numbers sourced from ChEMBL document CHEMBL1132608.
